Measured [35S]GTPγS binding, HN9.10 membranes expressing hDOR: LogEC50 by item
# System name: human δ-opioid receptor (human, UniProt P41143 1-372)
# Sequence (P41143 whole entry, stated change not applied): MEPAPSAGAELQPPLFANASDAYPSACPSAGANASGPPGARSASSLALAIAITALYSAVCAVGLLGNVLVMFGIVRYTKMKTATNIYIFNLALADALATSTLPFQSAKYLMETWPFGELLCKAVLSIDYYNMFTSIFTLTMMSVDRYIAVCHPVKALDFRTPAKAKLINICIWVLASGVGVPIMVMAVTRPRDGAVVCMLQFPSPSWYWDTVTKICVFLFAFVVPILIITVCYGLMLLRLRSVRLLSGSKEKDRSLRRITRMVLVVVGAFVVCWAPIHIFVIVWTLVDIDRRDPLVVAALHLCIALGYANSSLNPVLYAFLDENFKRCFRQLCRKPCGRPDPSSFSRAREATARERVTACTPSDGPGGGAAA
# Experiment description: cell-based or functional assay
Non-standard residues stand in square brackets, D forms with d. No end group written: not given here. *: point of attachment. NH(3,5-(CF3)2-benzyl) = FC(F)(F)c1cc(CN*)cc(C(F)(F)F)c1; βGlc = OC[C@H]1O[C@@H](*)[C@H](O)[C@@H](O)[C@@H]1O; Nle = CCCC[C@H](N)C(=O)O
Parameter: [35S]GTPγS binding, HN9.10 membranes expressing hDOR: LogEC50

YAGFXPLW (D-Ala at 2; norleucine (Nle) at 5 (written X); C-terminal 3’,5’-bis(trifluoromethyl)benzyl amide (Trp-NH-3’,5’-Bzl(CF3)2)) [Tyr-D-Ala-Gly-Phe-Nle-Pro-Leu-Trp-NH-3’,5’-Bzl(CF3)2] :: -8.3
Y[dA]GF[Nle]PLS(βGlc)W-{NH(3,5-(CF3)2-benzyl)} [Tyr-D-Ala-Gly-Phe-Nle-Pro-Leu-Ser(Glc)-Trp-NH-3’,5’-Bzl(CF3)2] :: -7.56
Y[dA]GFS(βGlc)PLW-{NH(3,5-(CF3)2-benzyl)} [Tyr-D-Ala-Gly-Phe-Ser(Glc)-Pro-Leu-Trp-NH-3’,5’-Bzl(CF3)2] :: -7.29
Y[dA]GF[Nle]PS(βGlc)W-{NH(3,5-(CF3)2-benzyl)} [Tyr-D-Ala-Gly-Phe-Nle-Pro-Ser(Glc)-Trp-NH-3’,5’-Bzl(CF3)2] :: -8.1
